activity change overview
# assay.method.text: qHTS for Inhibitors of Inflammasome Signaling: IL-1-beta AlphaLISA Primary Screen; also: % is scaled to controls: 0 for no effect and ±100 for the full control effect
# setup.conditions: THP-1 LPS/ATP IL-1B secretion, 16 h; at 57.5 µM, hits give low values
The whole screen tested about 360,000 compounds, of which about 17,000 (4.7%) were called active. About 5% were inconclusive and are not listed. This is one part of a sample in which actives are shown more often than they occur.

CC1=C(C(=O)N(C(C)C)C(C)C)CC(CC(=O)NCCCCc2ccccc2)C(=O)N1CCC1=CCCCC1 (configuration not stated) ... -59% (active)
COc1ccc(-c2ccc3[nH]c4c(c3c2)CCN2C[C@H]3[C@H](C)ON(C)[C@H]3C[C@@H]42)cc1 ... -18.3% (inactive)

Reported activity change of OC[C@H]1O[C@@H](c2nc(-c3nc(-c4ccc(F)cc4)no3)cs2)[C@H](O)[C@@H](O)[C@H]1O : 2.39% (inactive)

# activity change of Cc1ccc(N2CCN(c3ccc([N+](=O)[O-])cn3)CC2)c(C)c1 = -8.34% (inactive)

The compound C=CCSc1nnc(NC(=O)c2ccc(NC(C)=O)cc2)s1 showed activity change equal to 1.35% (inactive)

Measured activity change of CC(C)c1ccc(CC(=O)N2CCC2(C)C(=O)NS(=O)(=O)c2ccc(C(C)(C)C)cc2)cc1 (configuration not stated) : 19.2% (inactive)

Quick note, activity change for CCOC(=O)[C@]12CCCC=C1N(CCC1=CCCCC1)C(=O)[C@H](CC(=O)NCCCCc1ccccc1)C2 landed at -17.5% (inactive)

Lookup result for O=C(N/N=C/c1ccc(Cl)cc1)c1nc2ccc([N+](=O)[O-])cc2c(=O)[nH]1 ; measured activity change: 7.76% (inactive)

Record CCN(CC)CCn1c2ccc(Cl)cc2c2nc(C)sc21 . Reported activity change: -29.9% (inactive)

The compound identified as O=C1CC[C@@H](C(=O)N2CSC[C@@H]2C(=O)Nc2ccc(C(F)(F)F)cc2)N1 registered its activity change at -1.13% (inactive)

Documented activity change of COc1ccc(OC)c(/C=C/C(=O)c2ccc3c(c2)OCO3)c1 : -97.2% (active)

The compound identified as OC(COc1ccc2c(c1)CCC2)CN1CCN(c2cccc(Cl)c2)CC1 (configuration not stated) registered its activity change at -64.8% (active)

Just so you know, measured activity change for CN(CC(=O)NCc1ccncc1)S(=O)(=O)c1ccc(Br)cc1 came out at 11.2% (inactive)

Item: CCCCOCCCNC(=O)C[C@@H]1C[C@@]2(C(=O)OC)CCCCC=C2N(CCC2=CCCCC2)C1=O | activity change: -57.4% (active)

These measurements were taken from PubChem BioAssay AID743279.
